- System: Ovis aries
- method-description: Anthelmintic activity against sheep, infected with Ostertagia circumcincta, at a dose of 30 mg/kg.
- Assay type: functional
For each entry below, report its Reduction value.

Give me Reduction for each of these compounds, listed below.
1. N#C/C(C(=O)Nc1ccc(C(F)(F)F)cc1)=C(/O)Cc1ccc(C(F)(F)F)cc1
2. N#C/C(C(=O)Nc1ccc(C(F)(F)F)cc1)=C(/O)c1ccc(C(F)(F)F)cc1
3. N#C/C(C(=O)Nc1ccc(Cl)c(Cl)c1)=C(/O)c1ccc(Cl)c(Cl)c1

Resp:
1. 0%
2. 0%
3. 0%

* * *

- Test system: Rodentolepis nana
- method-description: The compound was tested for anthelmintic activity against mice, infected with parasite Hymenolepis nana at a dose of 250(ppm in feed)
- Type: functional
property-measured: Reduction (%)
Answers are plain numbers, in %.

Give me Reduction for each of these molecules, listed below.
1. N#C/C(C(=O)Nc1ccc(Sc2ccc(Cl)cc2)cc1)=C(/O)c1ccc(C(F)(F)F)cc1
2. N#C/C(C(=O)c1ccc(C(F)(F)F)cc1)=C(/S)Nc1ccc(C(F)(F)F)cc1
3. N#C/C(C(=O)Nc1ccc(C(F)(F)F)cc1)=C(O)\C=C\c1ccc(C(F)(F)F)cc1
4. N#C/C(C(=O)Nc1ccc([N+](=O)[O-])cc1)=C(/O)c1ccc(C(F)(F)F)cc1
5. N#C/C(C(=O)Nc1ccc(C(F)(F)F)cc1)=C(/O)Cc1ccc(C(F)(F)F)cc1
6. N#C/C(C(=O)Nc1ccc(Sc2ccccc2)cc1)=C(/O)c1ccc(C(F)(F)F)cc1

Resp:
33
90
0
100
0
0
